- recorded-conditions: in n-hexane, 313.2 K
property-label: solubility (mole fraction)
Give the figure only, with no unit attached.

Req: Requested read-out: solubility (mole fraction). Entry: Cc1cc(C)c(C(=O)P(=O)(C(=O)c2c(C)cc(C)cc2C)c2ccccc2)c(C)c1
Resp: 0.00323

----------
- recorded-conditions: in ethyl acetate, 313.2 K
property-label: solubility (mole fraction)
Give the figure only, with no unit attached.

Req: Requested read-out: solubility (mole fraction). Entry: Cc1cc(C)c(C(=O)P(=O)(C(=O)c2c(C)cc(C)cc2C)c2ccccc2)c(C)c1
Resp: 0.0406

----------
- recorded-conditions: in ethanol, 324.1 K
property-label: solubility (mole fraction)
Give the figure only, with no unit attached.

Req: Requested read-out: solubility (mole fraction). Entry: Cc1cc(C)c(C(=O)P(=O)(C(=O)c2c(C)cc(C)cc2C)c2ccccc2)c(C)c1
Resp: 0.0239

----------
- recorded-conditions: in ethyl acetate, 343.2 K
property-label: solubility (mole fraction)
Give the figure only, with no unit attached.

Req: Requested read-out: solubility (mole fraction). Entry: Cc1cc(C)c(C(=O)P(=O)(C(=O)c2c(C)cc(C)cc2C)c2ccccc2)c(C)c1
Resp: 0.16

----------
- recorded-conditions: in cyclohexane, 313.1 K
property-label: solubility (mole fraction)

Req: Requested read-out: solubility (mole fraction). Entry: Cc1cc(C)c(C(=O)P(=O)(C(=O)c2c(C)cc(C)cc2C)c2ccccc2)c(C)c1
Resp: 0.00414

----------
- recorded-conditions: in ethanol, 303.2 K
property-label: solubility (mole fraction)
Give the figure only, with no unit attached.

Req: Requested read-out: solubility (mole fraction). Entry: Cc1cc(C)c(C(=O)P(=O)(C(=O)c2c(C)cc(C)cc2C)c2ccccc2)c(C)c1
Resp: 0.00627

----------
- recorded-conditions: in isopropanol, 318 K
property-label: solubility (mole fraction)

Req: Requested read-out: solubility (mole fraction). Entry: Cc1cc(C)c(C(=O)P(=O)(C(=O)c2c(C)cc(C)cc2C)c2ccccc2)c(C)c1
Resp: 0.0137

----------
- recorded-conditions: in n-hexane, 308.1 K
property-label: solubility (mole fraction)
Give the figure only, with no unit attached.

Req: Requested read-out: solubility (mole fraction). Entry: Cc1cc(C)c(C(=O)P(=O)(C(=O)c2c(C)cc(C)cc2C)c2ccccc2)c(C)c1
Resp: 0.00277

----------
- recorded-conditions: in acetonitrile, 308 K
property-label: solubility (mole fraction)

Req: Requested read-out: solubility (mole fraction). Entry: Cc1cc(C)c(C(=O)P(=O)(C(=O)c2c(C)cc(C)cc2C)c2ccccc2)c(C)c1
Resp: 0.0108

----------
- recorded-conditions: in isopropanol, 338.3 K
property-label: solubility (mole fraction)
Give the figure only, with no unit attached.

Req: Requested read-out: solubility (mole fraction). Entry: Cc1cc(C)c(C(=O)P(=O)(C(=O)c2c(C)cc(C)cc2C)c2ccccc2)c(C)c1
Resp: 0.0556

----------
- recorded-conditions: in ethyl acetate, 323.3 K
property-label: solubility (mole fraction)

Req: Requested read-out: solubility (mole fraction). Entry: Cc1cc(C)c(C(=O)P(=O)(C(=O)c2c(C)cc(C)cc2C)c2ccccc2)c(C)c1
Resp: 0.064

----------
- recorded-conditions: in ethyl acetate, 333 K
property-label: solubility (mole fraction)
Give the figure only, with no unit attached.

Req: Requested read-out: solubility (mole fraction). Entry: Cc1cc(C)c(C(=O)P(=O)(C(=O)c2c(C)cc(C)cc2C)c2ccccc2)c(C)c1
Resp: 0.103

Entry source: BigSolDB 2.1
